# Test system: 9-ethylguanine (9-EtG)
# method: Interactions with nucleobases: 9-EtG adduct formation (1H NMR)
# Assay type: binding
# protocol_conditions: 24 h; ca. 1.0 mM, 1 mol equiv 9-EtG, 20% MeOD-d4/80% D2O, 310 K
experimental_endpoint: guanine adducts formed (%)
Provide the reading as a plain figure in %.

For Cc1c(C)c(C)[c-](C)c1C.Fc1c[c-]c(-c2ccccn2)c(F)c1.[Cl-].[Ir+3] [ZL74, [(η^5-C5Me5)Ir(2-dfphpy)Cl]] the compound record lists guanine adducts formed as 100

For Cc1c(C)c(C)[c-](C)c1C.Cc1c[c-]c(-c2ccccn2)cc1.[Cl-].[Ir+3] [ZL69, [(η^5-C5Me5)Ir(tpy)Cl]] the compound record lists guanine adducts formed as 100

For Cc1c(C)c(-c2ccccc2)[c-](C)c1C.[Cl-].[Ir+3].[c-]1ccccc1-c1ccccn1 (stereo not shown) [ZL107, [(η^5-C5Me4C6H5)(2-phpy)Cl]] the compound record lists guanine adducts formed as 100

For Cc1c(C)c(C)[c-](-c2ccc(-c3ccccc3)cc2)c1C.[Cl-].[Ir+3].[c-]1ccccc1-c1ccccn1 [ZL49, [(η^5-C5Me4C6H4C6H5)Ir(2-phpy)Cl]] the compound record lists guanine adducts formed as 100

----------
# System: 9-ethylguanine (9-EtG)
# method: Interactions with nucleobases: 9-EtG adduct formation (1H NMR)
# Assay type: binding
# protocol_conditions: 10 min; 1 mM, 1 mol equiv 9-EtG (ZL33A: 2 mol equiv), D2O, 310 K
Could you please report measured Reaction with 9-EtG, extent of adduct formation for the items listed next?
Provide the reading as a plain figure in %.

For Cc1c(C)c(-c2ccc(-c3ccccc3)cc2)[c-](C)c1C.F[P-](F)(F)(F)(F)F.[Cl-].[Ir+3].c1ccc(-c2ccccn2)nc1 (stereo not drawn) [ZL25, [(η^5-C5Me4C6H4C6H5)Ir(bipy)Cl]PF6] the compound record lists Reaction with 9-EtG, extent of adduct formation as 24.2

For Cc1c(C)c(C)[c-](C)c1C.O=C([O-])c1ccccn1.[Cl-].[Ir+3] [ZL03, [(η^5-C5Me5)Ir(η^2—C5H4N-2-CO2)Cl]] the compound record lists Reaction with 9-EtG, extent of adduct formation as 100

For Cc1c(C)c(C)[c-](C)c1C.F[P-](F)(F)(F)(F)F.NCCN.[Cl-].[Ir+3] [ZL01, [(η^5-C5Me5)IrCl(H2NCH2CH2NH2—N,N)]PF6] the compound record lists Reaction with 9-EtG, extent of adduct formation as 100

----------
# Tested on: ca. 60 cell lines within nine tumour type subpanels
# Type: cell-based
experimental_endpoint: CC50 (µM)
Provide the reading as a plain figure in µM.

For Cc1c(C)c(-c2ccccc2)[c-](C)c1C.F[P-](F)(F)(F)(F)F.[Cl-].[Ir+3].c1cnc2c(c1)ccc1cccnc12 (stereo not drawn) [ZL33, [(η^5-C5Me4C6H5)Ir(phen)Cl]PF6] the molecule record lists CC50 as 93.3

For Cc1c(C)c(-c2ccc(-c3ccccc3)cc2)[c-](C)c1C.F[P-](F)(F)(F)(F)F.[Cl-].[Ir+3].c1ccc(-c2ccccn2)nc1 (stereo not drawn) [ZL25, [(η^5-C5Me4C6H4C6H5)Ir(bipy)Cl]PF6] the molecule record lists CC50 as 67.6

For Cc1c(C)c(C)[c-](-c2ccc(-c3ccccc3)cc2)c1C.[Cl-].[Ir+3].[c-]1ccccc1-c1ccccn1 [ZL49, [(η^5-C5Me4C6H4C6H5)Ir(2-phpy)Cl]] the molecule record lists CC50 as 7.08

----------
Could you please report measured ΔH^‡ (activation enthalpy of hydrolysis) for the items listed next?
# method: Kinetics of hydrolysis followed by 1H NMR
# Type: physicochemical
# protocol_conditions: from Eyring plot
Provide the reading as a plain figure in kcal/mol.

For Cc1c(C)c(-c2ccccc2)[c-](C)c1C.F[P-](F)(F)(F)(F)F.[Cl-].[Ir+3].c1ccc(-c2ccccn2)nc1 (stereo not shown) [ZL37, [(η^5-C5Me4C6H5)Ir(bipy)Cl]PF6] the compound record lists ΔH^‡ (activation enthalpy of hydrolysis) as 19.1

For Cc1c(C)c(-c2ccc(-c3ccccc3)cc2)[c-](C)c1C.F[P-](F)(F)(F)(F)F.[Cl-].[Ir+3].c1ccc(-c2ccccn2)nc1 (stereo not shown) [ZL25, [(η^5-C5Me4C6H4C6H5)Ir(bipy)Cl]PF6] the compound record lists ΔH^‡ (activation enthalpy of hydrolysis) as 13.9

For Cc1c(C)c(-c2ccc(-c3ccccc3)cc2)[c-](C)c1C.F[P-](F)(F)(F)(F)F.[Cl-].[Ir+3].c1cnc2c(c1)ccc1cccnc12 (stereo not shown) [ZL54, [(η^5-C5Me4C6H4C6H5)Ir(phen)Cl]PF6] the compound record lists ΔH^‡ (activation enthalpy of hydrolysis) as 10.4

For Cc1c(C)c(-c2ccccc2)[c-](C)c1C.F[P-](F)(F)(F)(F)F.[Cl-].[Ir+3].c1cnc2c(c1)ccc1cccnc12 (stereo not shown) [ZL33, [(η^5-C5Me4C6H5)Ir(phen)Cl]PF6] the compound record lists ΔH^‡ (activation enthalpy of hydrolysis) as 20.06

----------
# Test system: 9-ethylguanine (9-EtG)
# method: Interactions with nucleobases: 9-EtG adduct formation (1H NMR)
# Type: binding
# protocol_conditions: 10 min; 1 mM, 1 mol equiv 9-EtG (ZL33A: 2 mol equiv), D2O, 310 K
experimental_endpoint: Reaction with 9-EtG, extent of adduct formation
Form entry: enter the amount, then its unit.

For Cc1c(C)c(-c2ccc(-c3ccccc3)cc2)[c-](C)c1C.O=C([O-])c1ccccn1.[Cl-].[Ir+3] (stereo not drawn) the molecule record lists Reaction with 9-EtG, extent of adduct formation as 100%

For Cc1c(C)c(C)[c-](C)c1C.[Cl-].[Cl][Ir]1[n+]2ccccc2-c2cccc[n+]21 [ZL04, [(η^5-C5Me5)Ir(bipy)Cl]Cl] the molecule record lists Reaction with 9-EtG, extent of adduct formation as 28.2%

For Cc1c(C)c(-c2ccc(-c3ccccc3)cc2)[c-](C)c1C.F[P-](F)(F)(F)(F)F.[Cl-].[Ir+3].c1cnc2c(c1)ccc1cccnc12 (stereo not drawn) [ZL54, [(η^5-C5Me4C6H4C6H5)Ir(phen)Cl]PF6] the molecule record lists Reaction with 9-EtG, extent of adduct formation as 62.2%

----------
# Tested on: human ovarian A2780 cancer cells
# method: Cancer cell cytotoxicity, SRB assay
# Assay type: cell-based
# protocol_conditions: screening test; read-out: A2780 IC50, data from screening test
pIC50: −log10 of the molar value.
experimental_endpoint: pIC50

For Cc1c(C)c(C)[c-](-c2ccc(-c3ccccc3)cc2)c1C.[Cl-].[Cl][Ir+2].c1cnc2c(c1)c1nccnc1c1cccnc12 [ZL94, [(η^5-C6Me4C6H4C6H5)Ir(dpq)Cl]Cl] the compound record lists pIC50 as > 5.30

For CCC[c-]1c(C)c(C)c(C)c1C.[Cl-].[Ir+3].[c-]1ccccc1-c1ccccn1 [ZL100, [(η^5-C5Me4C3H7)Ir(2-phpy)Cl]] the compound record lists pIC50 as > 5.00

For Cc1c(C)c(C)[c-](-c2ccc(-c3ccccc3)cc2)c1C.[Cl-].[Cl][Ir+2].c1ccc2nc3c4cccnc4c4ncccc4c3nc2c1 [ZL95, [(η^5-C5Me4C6H4C6H5Pr(dppz)Cl]Cl] the compound record lists pIC50 as > 5.30

For Cc1c(C)c(C)[c-](-c2ccccc2)c1C.[Cl-].[Cl][Ir+2].c1ccc2nc3c4cccnc4c4ncccc4c3nc2c1 [ZL93, [(η^5-C5Me4C6H5)Ir(dppz)Cl]Cl] the compound record lists pIC50 as > 5.30

For Cc1c(C)c(C)[c-](-c2ccccc2)c1C.F[P-](F)(F)(F)(F)F.[Cl][Ir+2]1[N]2C=CC=c3c2c2c(c4nccnc34)=CC=C[N]21 [ZL89, [(η^5-C5Me4C6H5)Ir(dpq)Cl]PF6] the compound record lists pIC50 as > 5.30

For CN(C)c1ccc(N=Nc2ccccn2)cc1.Cc1c(C)c(C)[c-](C)c1C.F[P-](F)(F)(F)(F)F.[Cl-].[Ir+3] [ZL64, [(η^5-C5Me5)Ir(azpy-NMe2)Cl]PF6] the compound record lists pIC50 as > 4.52

For CN(C)c1ccc(N=Nc2ccccn2)cc1.Cc1c(C)c(-c2ccccc2)[c-](C)c1C.F[P-](F)(F)(F)(F)F.[Cl-].[Ir+3] [ZL109, [(η^5-C5Me4C6H5)Ir(azpy-NMe2)Cl]PF6] the compound record lists pIC50 as > 5.00

----------
# method: Kinetics of hydrolysis followed by 1H NMR
# Assay type: physicochemical
# protocol_conditions: from Arrhenius plot
Could you please report measured Ea (Arrhenius activation energy of hydrolysis) for the items listed next?
Provide the reading as a plain figure in kcal/mol.

For Cc1c(C)c(-c2ccc(-c3ccccc3)cc2)[c-](C)c1C.F[P-](F)(F)(F)(F)F.[Cl-].[Ir+3].c1cnc2c(c1)ccc1cccnc12 (stereo not shown) [ZL54, [(η^5-C5Me4C6H4C6H5)Ir(phen)Cl]PF6] the compound record lists Ea (Arrhenius activation energy of hydrolysis) as 10.9

For Cc1c(C)c(-c2ccccc2)[c-](C)c1C.F[P-](F)(F)(F)(F)F.[Cl-].[Ir+3].c1ccc(-c2ccccn2)nc1 (stereo not shown) [ZL37, [(η^5-C5Me4C6H5)Ir(bipy)Cl]PF6] the compound record lists Ea (Arrhenius activation energy of hydrolysis) as 19.7

For Cc1c(C)c(-c2ccc(-c3ccccc3)cc2)[c-](C)c1C.F[P-](F)(F)(F)(F)F.[Cl-].[Ir+3].c1ccc(-c2ccccn2)nc1 (stereo not shown) [ZL25, [(η^5-C5Me4C6H4C6H5)Ir(bipy)Cl]PF6] the compound record lists Ea (Arrhenius activation energy of hydrolysis) as 14.4

For Cc1c(C)c(-c2ccccc2)[c-](C)c1C.F[P-](F)(F)(F)(F)F.[Cl-].[Ir+3].c1cnc2c(c1)ccc1cccnc12 (stereo not shown) [ZL33, [(η^5-C5Me4C6H5)Ir(phen)Cl]PF6] the compound record lists Ea (Arrhenius activation energy of hydrolysis) as 20.5
